test system: Escherichia coli (ATCC25922) or Staphylococcus aureus (ATCC25923); assay: Antibacterial MIC, microdilution method in Mueller-Hinton medium; type: cell-based; settings: Escherichia coli, 18 h, read-out: Potency (MIC)
result-type: MIC

Recorded results for 2 compounds are shown here.
Q: Record request: MIC value, item `Cc1ccc(C(=O)Nc2ccc(Nc3nc(N4C[C@H](N)C[C@H](N)C4)nc(N4C[C@@H](N)C[C@@H](O)C4)n3)cc2O)cc1`
Ans: < 64 µg/mL

Q: And then `N[C@@H]1C[C@H](N)CN(c2cc(Nc3ccc(NC(=O)c4ccc5ccccc5c4O)cc3)cc(N3C[C@H](N)C[C@H](N)C3)n2)C1` , what is it?
Ans: < 16 µg/mL

Kindly give each listed record's MIC.
1. N[C@@H]1C[C@H](N)CN(c2nc(Nc3ccc(NC(=O)CCCC[C@@H]4SC[C@H]5NC(=O)N[C@@H]45)c(O)c3)nc(N3C[C@H](N)C[C@H](N)C3)n2)C1
2. N[C@@H]1C[C@H](N)CN(c2nc(Nc3ccccc3N3CCCCC3)nc(N3C[C@H](N)C[C@H](N)C3)n2)C1
3. N[C@@H]1C[C@H](N)CN(c2nc(Nc3ccc([N+](=O)[O-])cc3)nc(N3C[C@H](N)C[C@H](N)C3)n2)C1
4. NCCN(CCN)c1nc(Nc2ccc3c(c2)-c2ccccc2C3=O)nc(N2C[C@H](N)C[C@H](N)C2)n1
5. N[C@@H]1C[C@H](N)CN(c2nc(Nc3ccc(S(=O)(=O)Nc4ccc5cn[nH]c5c4)cc3)nc(N3C[C@@H](N)C[C@H]3CO)n2)C1
6. Cc1cc(=O)oc2cc(Nc3nc(N4C[C@H](N)C[C@H](N)C4)nc(N4C[C@H](O)C[C@H]4CN)n3)ccc12

Ans:
1. > 64 µg/mL
2. > 64 µg/mL
3. < 64 µg/mL
4. > 64 µg/mL
5. > 64 µg/mL
6. > 64 µg/mL

###

Please go through the items and note down their MIC.
test system: Escherichia coli (ATCC25922) or Staphylococcus aureus (ATCC25923); experiment: Antibacterial MIC, microdilution method in Mueller-Hinton medium; type: cell-based; details: Escherichia coli, 18 h, MIC in E. coli or S. aureus; two-fold serial dilutions 64 to 0.5 μg/ml in duplicate; 18 hours of incubation at 35° C.; read-out: Potency (MIC)

Would you please look over these solved cases?
Q: Given `Cc1csc(Nc2nc(N3C[C@H](N)C[C@H](N)C3)nc(N3C[C@H](N)C[C@H](N)C3)n2)n1.Cl` , state its recorded MIC.
Ans: > 64 µg/mL

Q: Would you mind doing `N[C@@H]1C[C@H](N)CN(c2nc(Nc3ccc(C(=O)Nc4ccccc4)cc3)nc(N3C[C@H](N)C[C@H](N)C3)n2)C1` as well?
Ans: > 64 µg/mL

Q: Another compound to check: `Cc1cc(NC(=O)c2cccc([N+](=O)[O-])c2O)ccc1Nc1nc(N2CCCCC2)nc(N2CCCCC2)n1.Cl`
Ans: > 64 µg/mL

Q: Now this one: `O=C(Nc1ccccc1)c1ccccc1Nc1nc(N2CCCCC2)nc(N2CCCCC2)n1`
Ans: > 64 µg/mL

Q: Then `Cc1ccc(C(=O)Nc2ccc(Nc3nc(N4CC(N)C4)nc(N4C[C@H](N)C[C@H](N)C4)n3)cc2O)cc1.Cl` ?
Ans: < 64 µg/mL

Dear reader, for each entry below, please note its MIC.
1. Cc1ccc(S(=O)(=O)NC(Cc2ccccc2)C(=O)Nc2ccc(Nc3nc(N4CCCCC4)nc(N4CCCCC4)n3)cc2O)cc1.Cl (stereo not shown)
2. Cc1cc(NS(=O)(=O)c2ccc(Nc3nc(N4C[C@H](N)C[C@H](N)C4)nc(N4C[C@H](N)C[C@H](N)C4)n3)cc2)nc(C)n1.Cl
3. N[C@@H]1C[C@H](N)CN(c2nc(Nc3ccc4ccc5cccc6ccc3c4c56)nc(N3C[C@H](N)C[C@H](N)C3)n2)C1
4. Cl.N[C@@H]1C[C@H](N)CN(c2nc(Nc3ccc(Cl)c(Cl)c3)nc(N3C[C@H](N)C[C@H](N)C3)n2)C1
5. N[C@@H]1C[C@H](N)CN(c2nc(Nc3cccc(OC(F)(F)F)c3)nc(N3C[C@H](N)C[C@H](N)C3)n2)C1
6. COC(=O)c1ccc(Nc2nc(N3CCCCC3)nc(N3CCCCC3)n2)c(O)c1
7. COC(=O)c1ccccc1Nc1nc(N2C[C@H](N)C[C@H](N)C2)nc(N2C[C@H](N)C[C@H](N)C2)n1
8. O=S(=O)(Nc1ccc2cn[nH]c2c1)c1ccc(Nc2nc(N3CCCCC3)nc(N3CCN(c4ccncc4)CC3)n2)cc1

Ans:
< 16 µg/mL
> 64 µg/mL
< 16 µg/mL
< 64 µg/mL
> 64 µg/mL
> 64 µg/mL
> 64 µg/mL
< 64 µg/mL

Parameters: items (list). Returns: MIC for each item.
1. COCCNC(=O)c1ccc(Nc2nc(N3C[C@H](N)C[C@H](N)C3)nc(N3C[C@H](N)C[C@H](N)C3)n2)cc1O
2. Cl.N[C@@H]1C[C@H](N)CN(c2nc(Nc3ccccc3S(N)(=O)=O)nc(N3C[C@H](N)C[C@H](N)C3)n2)C1
3. Cc1ccc(S(=O)(=O)N(Cc2ccccc2)c2ccc(Nc3nc(NCCCn4ccnc4)nc(N4C[C@H](N)C[C@H](N)C4)n3)cc2O)cc1
4. CC(=O)c1ccc(Nc2nc(N3CCCCC3)nc(N3CCCCC3)n2)cc1.Cl
5. Cl.O=C(Nc1ccc(Nc2nc(NCCCn3ccnc3)nc(N3CCCCC3)n2)cc1O)c1ccc(Cl)cc1
6. Cl.O=S(=O)(c1cc(Nc2nc(N3CCCCC3)nc(N3CCCCC3)n2)ccc1N1CCOCC1)N1CCOCC1

Ans:
> 64 µg/mL
> 64 µg/mL
< 64 µg/mL
> 64 µg/mL
< 64 µg/mL
> 64 µg/mL

Quick one: give me MIC for each item below, same order please.
1. Cc1cc(Nc2nc(N3C[C@H](N)C[C@H](N)C3)nc(N3C[C@H](N)C[C@H](N)C3)n2)ccc1NC(=O)c1ccc(O)cc1O
2. Cc1csc2c(NNc3nc(N4C[C@H](N)C[C@H](N)C4)nc(N4C[C@H](N)C[C@H](N)C4)n3)ncnc12.Cl
3. Cl.N[C@@H]1C[C@H](N)CN(c2nc(Nc3ccon3)nc(N3C[C@H](N)C[C@H](N)C3)n2)C1

Ans:
< 16 µg/mL
> 64 µg/mL
> 64 µg/mL
